target: PSII reaction centers of thylakoid extract (Spinacia oleracea); construct: both lyophilized thylakoid extracts were resuspended in: Tris-HCl 50 mM pH 7.5; sorbitol 330 mM; from tissue; host or cells: plant thylakoid membrane extract (lyophilized, rehydrated); test: Inhibition of Fv/Fm (photosynthetic efficiency) of thylakoid extract by atrazine; assay type: biochemical, Spinacia oleracea L.; conditions: IC50 (atrazine concentration inhibiting 50% of the efficiency parameter), extract after 7 days at 20° C.; 5 μg/mL chlorophyll; 15 min dark incubation
assay readout: IC50 (nM)
Give bare numbers, in nM.

// query Kindly indicate its recorded IC50. Item: CCNc1nc(Cl)nc(NC(C)C)n1 [atrazine]
// result 116
